Tested on: Blumeria graminis f. sp. tritici
Assay: Test F: preventive spray on wheat seedlings, visual disease rating (wheat powdery mildew)
Assay type: in vivo
Settings: asterisk: 40 ppm test suspension
Marks after values point to notes of the source that are not given here.
MEASURED ENDPOINT: Test F rating (% disease control)

COc1nn(C)c(-c2c(F)cccc2F)c1C(O)c1ccc(F)cc1F (centres unmarked) [compound 156] :: 99* %
Cc1nn(C)c(-c2ccc(F)cc2Br)c1C(O)c1ccc(F)cc1Cl (centres unmarked) [compound 95] :: 95* %
Cc1nn(C)c(-c2c(F)cncc2F)c1C(O)c1ccc(F)cc1F (centres unmarked) [compound 168] :: 100* %
Cc1nn(C)c(-c2c(F)cccc2Cl)c1C(SC#N)c1c(F)cc(F)cc1F (centres unmarked) [Compound 123] :: 90* %
CC(=O)OC(c1ccc(F)cc1Cl)c1c(C)nn(C)c1-c1c(F)cccc1F (centres unmarked) [Compound 108] :: 100* %

---

Test system: Puccinia recondite f. sp. tritici
Assay: Test E2: preventive spray on wheat seedlings, visual disease rating (wheat leaf rust)
Assay type: in vivo
Conditions: asterisk: 40 ppm test suspension
Marks after values point to notes of the source that are not given here.
// values below are reported Test E2 rating (% disease control)
MEASURED ENDPOINT: Test E2 rating (% disease control)

Cn1nc(OC(F)F)c(C(O)c2ccc(F)cc2Cl)c1-c1c(F)cccc1F (stereo not shown) [compound 128] :: 85* %
COc1nn(C)c(-c2c(F)cc(F)cc2F)c1C(O)c1ccc(F)cc1Cl (stereo not shown) [compound 152] :: 100* %
Cc1nn(C)c(-c2ccc(F)cc2Cl)c1Nc1ccc(F)cc1Br [compound 58] :: 98* %
Cc1nn(C)c(-c2c(F)cccc2F)c1C(F)c1ccc(Cl)cc1Cl (stereo not shown) [Compound 92] :: 99* %
Cc1nn(C)c(-c2c(F)cccc2Cl)c1C(SC#N)c1ccc(F)cc1Cl (stereo not shown) [Compound 121] :: 100* %
Cc1nn(C)c(-c2ccc(F)cc2Cl)c1Nc1ccc(Cl)cc1F [Compound 45] :: 95* %
Cc1nn(C)c(-c2ccc(F)cc2Br)c1C(=O)c1ccc(F)cc1F [compound 73] :: 0* %
COc1nn(C)c(-c2c(F)cccc2Cl)c1C(O)c1ccc(F)cc1C (stereo not shown) [compound 140] :: 99* %
Cc1nn(C)c(-c2c(F)cccc2Cl)c1C(O)c1ccc(Cl)cc1Cl (stereo not shown) [compound 90] :: 100* %
Cc1nn(C)c(-c2ccc(F)cc2Cl)c1Nc1ccc(F)cc1F [compound 49] :: 74* %
Cc1nn(C)c(-c2c(F)cccc2F)c1C(OCC#N)c1ccc(F)cc1Cl (stereo not shown) [Compound 107] :: 99* %
COc1nn(C)c(-c2c(F)cccc2Cl)c1C(O)c1c(F)ccc(F)c1F (stereo not shown) [compound 145] :: 82* %
Cc1nn(C)c(-c2ccc(F)cc2Cl)c1Nc1ccc(Cl)cc1Cl [compound 44] :: 99* %
COc1ccc(C(O)c2c(C)nn(C)c2-c2ccc(F)cc2Cl)c(Cl)c1 (stereo not shown) [compound 169] :: 88* %
Cc1nn(C)c(-c2ccc(F)cc2Br)c1C(=O)c1ccc(F)cc1Cl [compound 83] :: 74* %
Cc1nn(C)c(-c2ccc(F)cc2F)c1Nc1ccc(F)cc1Cl [compound 57] :: 18* %
CC(=O)OC(c1ccc(F)cc1Cl)c1c(C)nn(C)c1-c1c(F)cccc1F (stereo not shown) [Compound 108] :: 100* %
COc1nn(C)c(-c2c(F)cc(Cl)cc2F)c1C(O)c1ccc(F)cc1Cl (stereo not shown) [compound 162] :: 86* %
COc1nn(C)c(-c2c(F)cccc2Cl)c1C(O)c1c(F)ccc(F)c1Cl (stereo not shown) [compound 144] :: 100* %
Cc1nn(C)c(-c2c(F)cccc2F)c1C(SC#N)c1ccc(F)cc1F (stereo not shown) [Compound 115] :: 94* %
Cc1nn(C)c(-c2c(F)cncc2F)c1C(O)c1ccc(F)cc1F (stereo not shown) [compound 168] :: 88* %
COc1nn(C)c(-c2c(F)cccc2F)c1C(O)c1ccc(F)cc1F (stereo not shown) [compound 156] :: 99* %
Cc1nn(C)c(-c2c(F)cccc2F)c1C(Cl)c1ccc(F)cc1Cl (stereo not shown) [Compound 84] :: 100* %
Cc1nn(C)c(-c2c(Cl)cncc2Cl)c1C(=O)c1ccc(F)cc1Cl [compound 96] :: 0* %
Cc1nn(C)c(-c2c(F)cccc2Cl)c1C(SC#N)c1c(F)cc(F)cc1F (stereo not shown) [Compound 123] :: 99* %
C=CCOC(c1ccc(F)cc1Cl)c1c(C)nn(C)c1-c1c(F)cccc1F (stereo not shown) [Compound 109] :: 98* %
COc1cc(F)c(-c2c(C(O)c3c(F)cc(F)cc3F)c(C)nn2C)c(F)c1 (stereo not shown) [compound 173] :: 100* %
Cc1nn(C)c(-c2c(F)cccc2Cl)c1C(F)c1c(F)cc(F)cc1F (stereo not shown) [Compound 75] :: 100* %
COc1cc(F)c(-c2c(C(O)c3ccc(F)cc3Cl)c(C)nn2C)c(F)c1 (stereo not shown) [compound 171] :: 100* %
Cc1nn(C)c(-c2ccc(F)cc2F)c1C(O)c1ccc(F)cc1Cl (stereo not shown) [compound 71] :: 99* %
COCOC(c1ccc(F)cc1Cl)c1c(C)nn(C)c1-c1c(F)cccc1F (stereo not shown) [Compound 110] :: 98* %
COc1nn(C)c(-c2c(F)cc(F)cc2F)c1C(O)c1ccc(F)cc1F (stereo not shown) [compound 153] :: 100* %
COc1ccc(C(O)c2c(OC)nn(C)c2-c2c(F)cccc2Cl)c(Cl)c1 (stereo not shown) [compound 142] :: 100* %
COc1nn(C)c(-c2c(F)cccc2F)c1C(O)c1c(F)ccc(F)c1F (stereo not shown) [compound 138] :: 55* %
